Listing: FOP (fold binding over the parental cell line) of selected binders
target-under-test: T1, mouse B7-H4 on the cell surface (mouse, UniProt Q7TSP5 25-257)
T1 construct: full-length, on transfected HEK293T cells
T1 sequence: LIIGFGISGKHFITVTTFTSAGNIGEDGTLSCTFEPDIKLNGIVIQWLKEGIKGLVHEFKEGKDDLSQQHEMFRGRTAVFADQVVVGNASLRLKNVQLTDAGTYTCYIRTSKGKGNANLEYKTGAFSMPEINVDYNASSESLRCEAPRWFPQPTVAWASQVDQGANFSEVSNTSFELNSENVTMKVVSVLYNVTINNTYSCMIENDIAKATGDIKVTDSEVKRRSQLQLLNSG
assay-name: flow cytometry, 100 nM, transfected HEK293T
assay-metric: FOP (fold binding over the parental cell line) (fold)

1. B7-H4 antibody 20496 (antibody, human IgG1, kappa, V domains shown, human IgG1/kappa) VH: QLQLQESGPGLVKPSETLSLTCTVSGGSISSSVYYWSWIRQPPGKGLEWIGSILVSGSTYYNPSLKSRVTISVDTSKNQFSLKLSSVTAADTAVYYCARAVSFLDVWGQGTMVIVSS VL: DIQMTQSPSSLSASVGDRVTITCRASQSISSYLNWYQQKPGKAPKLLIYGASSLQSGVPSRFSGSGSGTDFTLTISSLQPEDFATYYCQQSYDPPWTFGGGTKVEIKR : 604
2. B7-H4 antibody 20501 (antibody, human IgG1, kappa, V domains shown, human IgG1/kappa) VH: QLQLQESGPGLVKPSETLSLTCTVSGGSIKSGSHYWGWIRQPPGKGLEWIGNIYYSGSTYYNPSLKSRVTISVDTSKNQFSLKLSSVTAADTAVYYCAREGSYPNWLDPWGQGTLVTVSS VL: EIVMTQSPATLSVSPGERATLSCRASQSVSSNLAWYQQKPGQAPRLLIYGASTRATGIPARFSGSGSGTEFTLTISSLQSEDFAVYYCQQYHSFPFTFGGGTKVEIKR : 546

# credit: patent US20240043542A1
